cell count values for the compounds below.
assay: sensitizers of A549 cells to miR-34 induction, primary screen, imaging, A549 dox-inducible miR-34, nuclei and caspase counts (AID 1347080); details: A549 miR-34 inducible, Hoechst nuclei count, 48 h; measured here: total cells without miR-34 induction
parameter measured: cell count

compound	obs value
O=C1c2ccccc2C(=O)C1c1ccc(Br)cc1	13100
CCCCN1C[C@H](O)[C@@H](O)[C@H](O)[C@H]1CO	10500
CN(C)CCCSc1ccccc1NC(=O)C=Cc1ccccc1	9280
CCC(=O)NCC[C@@H]1CCc2ccc3c(c21)CCO3	13400
CCOC(=O)[C@H](CCc1ccccc1)N[C@@H](C)C(=O)N1Cc2cc(OC)c(OC)cc2C[C@H]1C(=O)O	8220
O=S(=O)(O)Oc1ccc(C(c2ccc(OS(=O)(=O)O)cc2)c2ccccn2)cc1	9690
CC(=O)N(CC(O)CO)c1c(I)c(C(=O)NCCO)c(I)c(C(=O)NCC(O)CO)c1I (stereo unspecified)	9680
CN1CC(=O)N/C1=N/C(=O)Nc1cccc(Cl)c1	9740
CC1(O)CCC(C(C)(C)O)CC1 (stereo unspecified)	8850
CN1CCN(c2c(F)cc3c(=O)c(C(=O)O)cn(CCF)c3c2F)CC1	11400
O=C(O)c1ccc(-n2nc(-c3ccccc3O)nc2-c2ccccc2O)cc1	4600

###

inhibition values for the compounds below.
molecular target: 6-phosphogluconate dehydrogenase, decarboxylating (Homo sapiens) (UniProt P52209); assay: 6PGD enzyme inhibitors, primary screen, biochemical, human, recombinant enzyme, NADPH absorbance (AID 1159550); conditions: recombinant 6PGD, NADPH absorbance 341 nm; at 10 µM; stronger effect = higher value
Sequence (P52209 whole entry, looked up): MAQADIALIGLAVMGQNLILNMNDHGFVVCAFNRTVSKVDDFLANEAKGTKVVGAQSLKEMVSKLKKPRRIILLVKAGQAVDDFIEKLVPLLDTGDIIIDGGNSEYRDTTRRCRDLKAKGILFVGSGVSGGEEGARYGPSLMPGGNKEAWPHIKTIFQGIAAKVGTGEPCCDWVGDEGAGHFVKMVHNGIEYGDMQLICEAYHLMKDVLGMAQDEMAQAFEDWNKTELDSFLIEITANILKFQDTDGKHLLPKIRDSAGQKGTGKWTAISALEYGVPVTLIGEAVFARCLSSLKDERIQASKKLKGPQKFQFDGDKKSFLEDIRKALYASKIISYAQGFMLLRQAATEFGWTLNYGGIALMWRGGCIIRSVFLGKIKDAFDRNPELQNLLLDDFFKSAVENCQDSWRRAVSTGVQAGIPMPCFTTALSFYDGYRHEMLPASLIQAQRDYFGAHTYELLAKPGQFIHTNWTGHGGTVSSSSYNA

compound	inhibition (%)
COc1cccc2c1CCC1=CC(=O)CC[C@@]12C	-1.6
CC(=O)O[C@H]1CC[C@@]2(C)C(=CC=C3[C@@H]4CC[C@H]([C@H](C)/C=C/[C@H](C)C(C)C)[C@@]4(C)CC[C@@H]32)C1	14.6
O=C(CCCN1CCC(O)(c2ccc(Cl)cc2)CC1)c1ccc(F)cc1	-6.6
CC[C@@H](CC[C@@H](C)[C@H]1CC[C@H]2[C@@H]3CC[C@H]4C[C@@H](O)CC[C@]4(C)[C@H]3CC[C@]12C)C(C)C	-13.2
C1CNCCN1	7.35
CC(=O)O[C@H]1CC2C(C)(C)[C@H](OC(C)=O)C=C[C@@]2(C)C2CC[C@@]3(C)C(=CC(=O)O[C@@H]3c3ccoc3)[C@]21C (some centres not stated)	0.19
C=C(C)CCCC(C)CCOC(C)=O (configuration not stated)	8.09
Cc1occc(=O)c1O	8.86
CC(=O)O[C@@H]1CC2C(C)(C)CCC(=O)[C@]2(C)C2CC[C@@]3(C)[C@H](c4ccoc4)OC(=O)C4OC43[C@@]21C (some centres not stated)	-0.737
OCc1c[nH]c2ccccc12	14.9
COc1cc(OC)c(-c2c(OC)cc(OC)cc2OC)c(OC)c1	11.7
C=CCCCCCCCCCCCC(O)CC(O)COC(C)=O (configuration not stated) (tested in a mixture with another compound)	4.12
COc1ccc2c(c1)CC[C@@H]1[C@@H]2CC[C@]2(C)[C@@H](O)CC[C@@H]12	-8.02
COc1ccc2c(c1)CC[C@@H]1[C@@H]2CC[C@]2(C)[C@@H](O)[C@H](O)C[C@@H]12	5.45
CC(C)C1COc2cc3oc(=O)ccc3cc2O1 (configuration not stated)	3.83
CC(=O)NC(CC(C)C)C(=O)O (configuration not stated)	4.75
OC[C@@H](O)[C@@H](O)C(O)[C@H](O)[C@@H](O)CO (some centres not stated)	-5.44
CC(C)=CCC1=C(O)c2ccccc2C(=O)C1=O	-1.8
COC(=O)C[C@H]1C2(C)CC34OC5(C)O[C@@]6([C@H](OC)C(OC(=O)C(C)C)[C@]7(C)C(/C(=C(/OC)C(C)C)C(=O)O[C@H]7c7ccoc7)[C@@]6(O5)[C@H](OC)[C@@]3(OC)C2OC(C)=O)[C@]14C (some centres not stated)	-3.86
COC(=O)C[C@H]1C(C)(C)[C@@H](O)[C@@H]2CC3=C4C=C(OC)O[C@@H](c5ccoc5)[C@]4(C)CCC3[C@@]1(C)C2=O (some centres not stated)	1.56
CCOC(=O)C(=O)C1(C(=O)OCC)Oc2cc(OC)cc(OC)c2C(=O)C1c1ccccc1 (configuration not stated)	14.2
COc1cc(O)c(C(C)=O)c(OC)c1	0.271
COC(=O)C[C@H]1C2(C)CC34OC5(C)O[C@@]6([C@H](OC(C)=O)C(OC(C)=O)[C@]7(C)C(/C(=C(/O)C(C)C)C(=O)O[C@H]7c7ccoc7)[C@@]6(O5)[C@H](OC(C)=O)[C@@]3(O)C2OC(=O)C(C)C)[C@]14C (some centres not stated)	-3.02
COc1ccc(-c2cc(=O)c3c(OC)c(OC)c(OC)c(OC)c3o2)cc1OC	2.3
C[C@]12CC[C@@H](O)C[C@H]1CC[C@@H]1[C@@H]2C(=O)C[C@@]2(C)[C@H]1CC[C@]2(O)C(=O)CO	-17
O=[N+]([O-])c1cccc2cn[nH]c12	-14.4
COc1cc(OC)c2c(=O)c(-c3ccc4c(c3)OCO4)coc2c1	7.77
CCCc1nc(C(C)(C)O)c(C(=O)OCc2oc(=O)oc2C)n1Cc1ccc(-c2ccccc2-c2nn[nH]n2)cc1	-1.37
O=C1CC[C@]23/C=C\C(=O)NCCCCNCCCNC(=O)/C=C\c4ccc(c2c4)O[C@@H]3C1	-0.518
COc1cc(-c2coc3cc(OCc4ccccc4)c(OC)c(O)c3c2=O)cc(O)c1OC	9.07
Cc1cc(OC(=O)c2c(C)cc(O)cc2O)cc(O)c1C(=O)O	1.29
COc1ccc2c(C)cc(=O)oc2c1	13.6
CC12CC[C@H](CC1=O)C2(C)C	13.3
C/C=C(/C)C(=O)O[C@H]1Cc2c(ccc3ccc(=O)oc23)OC1(C)C	9.34
CC(=O)OC1CCC2(C)C(=CCC3C2CCC2(C)C(C(C)CCCC(C)C)CCC32)C1 (configuration not stated)	13.3
Nc1nc(/C(=C/CC(=O)O)C(=O)N[C@@H]2C(=O)N3C(C(=O)O)=CCS[C@H]23)cs1	-3.19
CC(=O)O[C@@H]1CC2C(C)(C)C(=O)CC[C@]2(C)C2CC[C@]3(C)C(=CC(=O)O[C@H]3c3ccoc3)[C@@]21C (some centres not stated)	14.2

###

red/green cell ratio (normalised) values for the compounds below.
experiment: differential killing of epithelial or mesenchymal cells, primary screen, imaging, PC-3E GFP, TEM4-18 mCherry, co-culture (AID 1345086); details: imaging cell counts, at 1 µM, actives lie on both sides, counts scaled to control wells, 1 = unselective;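 further: normalised mesenchymal count divided by normalised epithelial count so high means epithelial killing; cells exposed to compound for 72 h before imaging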
parameter measured: red/green cell ratio (normalised)

compound	obs value
CON	1.03
CC(C)(Oc1ccc(C2CC2(Cl)Cl)cc1)C(=O)O (stereo unspecified)	1.11
CC(=O)c1ccc2c(c1)N(CCCN1CCC(CCO)CC1)c1ccccc1S2	1.13
COc1cc(OC)c2c(=O)c(-c3ccccc3)c(C)oc2c1OC	1.02
CC1=C(CCC(=O)O)c2cc3nc(cc4[nH]c(cc5[nH]c(cc1n2)c(C)c5C(C)O)c(C)c4C(C)O)C(C)=C3CCC(=O)O (stereo unspecified)	1.39
C1N2CN3CN1CN(C2)C3	1

###

assay: liver-stage malaria parasite growth inhibition, primary screen, cell-based, HepG2, luciferase luminescence, HepG2 viability (AID 624349);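 further: 100% = mean of DMSO negative control wells on the same plate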; conditions: P. berghei liver stage in HepG2, luciferase luminescence, concentration not given here
Calls of active or inactive are those of the source. No stated cut-off is given here; in the data, active means parasite load remaining mostly below about 12% (no sharp cut-off); inactive means mostly above about 10%.
Labels: label 1 = active, label 0 = inactive

compound	label value
COc1ccc(Cl)cc1NC(=O)Nc1cc(C)nc2ccccc12	label 0
O=C(O)Cc1sc(-c2ccccc2)nc1-c1ccc(Cl)cc1	label 0
CCN(CC)CCc1nc(-c2ccccc2)no1	label 0
CCCCCCCCCCOc1cc2c(=O)c(C(=O)OCC)c[nH]c2cc1OCC	label 1
CC(C)(C)C(=O)C(Oc1ccc(Cl)cc1)n1ccnc1 (stereo unspecified)	label 0
CC(=O)N[C@@H](CC(=O)O)C(=O)O	label 0
CC[C@@]1(O)C[C@H](O[C@H]2C[C@H](N(C)C)[C@H](O[C@H]3C[C@H](O)[C@H](O[C@H]4CCC(=O)[C@H](C)O4)[C@H](C)O3)[C@H](C)O2)c2c(cc3c(c2O)C(=O)c2c(O)cccc2C3=O)[C@H]1C(=O)OC	label 0
O=C1OC2(c3ccc(O)cc3Oc3cc(O)ccc32)c2ccccc21	label 0
CC(C)C[C@H]1C(=O)N2CCC[C@H]2[C@]2(O)O[C@](NC(=O)[C@@H]3C=C4c5cccc6[nH]c(Br)c(c56)C[C@H]4N(C)C3)(C(C)C)C(=O)N12	label 0
O=C(O[C@@H]1Cc2c(O)cc(O)cc2O[C@@H]1c1cc(O)c(O)c(O)c1)c1cc(O)c(O)c(O)c1	label 0
OC[C@H]1O[C@@H](Oc2cc(O)cc(/C=C/c3ccc(O)cc3)c2)[C@H](O)[C@@H](O)[C@@H]1O	label 0
COc1c(C)c2c(c(O)c1C/C=C(\C)CCC(=O)OCCN1CCOCC1)C(=O)OC2	label 0
CC1=C(C)C(=O)C(CCCCC#CCCCC#CCO)=C(C)C1=O	label 0
NS(=O)(=O)c1cc(Cl)c(Cl)c(S(N)(=O)=O)c1	label 0
C1COC(NC(C2CC2)C2CC2)=N1	label 0
CCN(CC)C(=O)/C(C#N)=C/c1cc(O)c(O)c([N+](=O)[O-])c1	label 0
CCCN(CCC)CCc1cccc2c1CC(=O)N2	label 0
CN1C(=O)CC(c2ccccc2)C1=O (stereo unspecified)	label 0
CCOc1ccc2c(c1)C(C)=CC(C)(C)N2	label 0
CN[C@H](CC(=O)O)C(=O)O	label 0
NS(=O)(=O)c1cc2c(cc1Cl)NC(CC1CCCC1)NS2(=O)=O (stereo unspecified)	label 0
